Every entry's value here was drawn from paper PMC3438196.

Here the recorded percent of parent is given for each entry.
B1: Apobec3G-GFP MAPPIT bait (pCEL-Apobec3G-GFP) [human] / Apobec3G MAPPIT prey (pMG2-Apobec3G) [human] (parent)
chain 1: MKPHFRNTVERMYRDTFSYNFYNRPILSRRNTVWLCYEVKTKGPSRPPLDAKIFRGQVYSELKYHPEMRFFHWFSKWRKLHRDQEYEVTWYISWSPCTKCTRDMATFLAEDPKVTLTIFVARLYYFWDPDYQEALRSLCQKRDGPRATMKIMNYDEFQHCWSKFVYSQRELFEPWNNLPKYYILLHIMLGEILRHSMDPPTFTFNFNNEPWVRGRHETYLCYEVERMHNDTWVLLNQRRGFLCNQAPHKHGFLEGRHAELCFLDVIPFWKLDLDQDYRVTCFTSWSPCFSCAQEMAKFISKNKHVSLCIFTARIYDDQGRCQEGLRTLAEAGAKISIMTYSEFKHCWDTFVDHQGCPFQPWDGLDEHSQDLSGRLRAILQNQEN
chain 2: B1 chain 1

Variants of: B1
Assay Explanation: MAPPIT
Details: with Apobec3G MAPPIT prey (pMG2-Apobec3G) [human]

Observe how each entry below is paired with its result.
>  <Mutation Spec>
chain 1 E191V

>  <percent of parent>
40 % of WT

$$$$
>  <Mutation Spec>
chain 1 Y222N

>  <percent of parent>
7 % of WT

$$$$

Ask: What value of measured percent of parent is listed for chain 1 W269G ?
Result: 68 % of WT

Ask: What value of measured percent of parent is listed for chain 1 K63R ?
Result: 5 % of WT

Ask: What value of measured percent of parent is listed for chain 1 R24G ?
Result: 5 % of WT
